# ASSAY: Half life in Sprague-Dawley rat at 5 mg/kg, po
# Type: ADME, organism-based
# Set-up: dose 5 mg/kg, route oral
# TEST SETTINGS: in vivo
REPORTED PROPERTY: half-life (h)

COMPOUND SMILES: C[C@]1(C(=O)N(CCCC(=O)O)Cc2cccc(Cl)c2)CCN1C(=O)c1csc2ccccc12
RESULT: 1.7

* * *

# ASSAY: Tmax in Sprague-Dawley rat at 5 mg/kg, po by mass spectrometry
# Format: ADME, organism-based
# Set-up: dose 5 mg/kg, route oral
# TEST SETTINGS: in vivo
REPORTED PROPERTY: Tmax (min)

COMPOUND SMILES: C[C@]1(C(=O)N(CCCC(=O)O)Cc2cccc(Cl)c2)CCN1C(=O)c1csc2ccccc12
RESULT: 24

From: ChEMBL document CHEMBL3352744
